experiment-summary: in vitro
test-context: human, Caco-2, pH 7.4
Procedure: Example 37: Caco-2 Permeability Assay The goal of this assay was to evaluate the intestinal absorption potential of drug candidates using Caco-2 cell lines. HBSS buffer with 0.3% DMSO and 5 μM LY: add 150 μL DMSO and 50 μL LY (5 mM) into 50 ml HBSS buffer (pH 7.4). HBSS buffer with 0.1% DMSO and 5 μM LY: add 50 μL DMSO and 50 μL LY (5 mM) into 50 mL HBSS buffer (pH 7.4). […] 1. Papp values were calculated based on calculated concentrations. […]
measured-property: Papp A→B at 90 min, 10 μM

Below, each entry is followed by its recorded Papp A→B at 90 min, 10 μM result.
compound	Papp A→B at 90 min, 10 μM
Cc1nccnc1[C@@H]1CCC[C@H](c2nc3cccc(N4CCN(C)CC4)c3[nH]2)N1C [I-105]	0.1 to 10 ×10⁻⁶ cm/s
COCCCn1c([C@H]2CCC[C@@H](c3ncccc3C)N2)nc2ccccc21 [I-158]	10 to 30 ×10⁻⁶ cm/s
COc1cccnc1[C@@H]1CCC[C@H](c2nc3cccc(N4CCN(C)CC4)c3[nH]2)N1 [I-127]	0.1 to 10 ×10⁻⁶ cm/s
Cc1cccnc1[C@@H]1CCC[C@H](c2nc3cccc(N4CCN(C5CC5)CC4)c3[nH]2)N1 [I-125]	10 to 30 ×10⁻⁶ cm/s
CN1[C@@H](c2nc3cccc(N4CCN5CCCC5C4)c3[nH]2)CCC[C@H]1c1ncccc1Cl (some centres unmarked) [I-150]	10 to 30 ×10⁻⁶ cm/s

Ask: Output Papp A→B at 90 min, 10 μM of Cc1cccnc1[C@@H]1CCC[C@H](c2nc3ccccc3[nH]2)N1CCCCN [I-1]
Reply: 0.1 to 10 ×10⁻⁶ cm/s

Ask: Output Papp A→B at 90 min, 10 μM of Cc1cccnc1[C@@H]1CCC[C@H](c2nc3cccc(N4CC5CC4CN5C)c3[nH]2)N1C (some centres unmarked) [I-110]
Reply: 0.1 to 10 ×10⁻⁶ cm/s

Ask: Output Papp A→B at 90 min, 10 μM of Cc1cccnc1[C@@H]1CCC[C@H](c2nc3ccccc3[nH]2)N1Cc1ccccc1-n1cccn1 [I-21]
Reply: 10 to 30 ×10⁻⁶ cm/s
